The reported measurements were obtained from paper PMC5540273.

# Tested on: PFTAIRE2;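 note: KINOMEscan kinase panel screen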
# setup.conditions: concentration: 1 μM,replicates: in singlicate; n = 1
property: %Inh (%)
Numbers only; they are read as %.

Prompt: Look up %Inh for this compound: O=C(NCC1CC1)c1ccc(-c2cc(C(=O)NC3CC3)ccc2F)cc1 [GW810445]
Response: 0

Prompt: Look up %Inh for this compound: c1ccc(Oc2ccc(Nc3ccnc4ccc(-c5ccccn5)cc34)cc2)cc1 [GW407034]
Response: 0

Prompt: Look up %Inh for this compound: Cn1ccc2ncnc(Oc3ccc(NC(=O)Nc4ccnc(C(F)(F)F)c4)c(Cl)c3)c21
Response: 5

Prompt: Look up %Inh for this compound: Cc1nnc(-c2ccc3occ(-c4ccc(S(C)=O)cc4)c3n2)o1 (stereo not drawn)
Response: 0

Prompt: Look up %Inh for this compound: O=C(Nc1ccccc1)c1cccc(Oc2ccc3nccn3n2)c1
Response: 0

Prompt: Look up %Inh for this compound: CN(c1ccccc1CNc1nc(Nc2ccc3c(c2)CC(=O)N3)ncc1C(F)(F)F)S(C)(=O)=O
Response: 35

Prompt: Look up %Inh for this compound: C[C@@H]1CNc2c(sc3ccc4nc(-c5ccncc5)ccc4c23)C(=O)N1
Response: 0

Prompt: Look up %Inh for this compound: C[C@@H]1CNc2c(sc3ccc4nc(-c5ccc(O)cc5)ccc4c23)C(=O)N1
Response: 18

Prompt: Look up %Inh for this compound: CC(C(=O)NC1CCN(c2ccnc(Nc3ccc(F)cc3)n2)C1)c1ccc(Cl)cc1 (stereo not drawn) [GSK1379713]
Response: 24
